FYI, the data here is from PubChem BioAssay (Tox21).

Assay: qHTS assay to identify aromatase inhibitors - cell viability counter screen (AID 743084);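 further: cells stimulated with testosterone during compound exposure; nearly all actives have a fitted effect of over 55% in size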
Settings: MCF-7 aro ERE viability, CellTiter-Fluor, 24 h; series mostly up to 70.3 µM
Results filed as inconclusive are left out. Active and inactive are the calls of the source. The call rests on the fitted dose curve; in most records, active means well fitted cell-killing curve with a large enough effect in the repeat runs; inconclusive means weak or mixed curves, or effect the other way; inactive means no such curve, though single readings can be large or run the other way.
Respond only with the outcome that fits, drawn from active, inactive

Worked set:
compound: O=C(O)COc1ccccc1/C=N/NC(=O)c1ccncc1
assigned label: inactive
--
compound: CN(C)CCOc1ccc(/C(=C(/CCCl)c2ccccc2)c2ccccc2)cc1
assigned label: active
--
compound: O=C(O)C[C@H](O)C[C@H](O)/C=C/c1c(C2CC2)nc2ccccc2c1-c1ccc(F)cc1
assigned label: inactive

Q: // param item: `O=C1c2ccccc2CN2C(=O)c3ccccc3CN12` ; yields the recorded call
Result: inactive

Q: Next: `CC[C@H]1OC(=O)C[C@@H](O)[C@H](C)[C@@H](O[C@@H]2O[C@H](C)[C@@H](O)[C@H](N(C)C)[C@H]2O)[C@@H](CCN2C[C@H](C)C[C@H](C)C2)C[C@@H](C)C(=O)/C=C/C(C)=C/[C@@H]1CO[C@@H]1O[C@H](C)[C@@H](O)[C@@H](OC)[C@H]1OC`
Result: inactive

---

Target: Nuclear receptor subfamily 1 group I member 2 (Homo sapiens)
Assay: Human pregnane X receptor (PXR) small molecule agonists, qHTS assay (AID 1346982); further: nearly all actives have a fitted effect of over 35% in size
Conditions: PXR-Luc HepG2, CYP3A4 luciferase reporter, 24 h; series mostly up to 92.4 µM
Results filed as inconclusive are left out. Active and inactive are the calls of the source. Calls come from the whole dose curve; as a rule, active = well fitted activation curve with a large enough effect in the repeat runs; inconclusive = weak or mixed curves; inactive = no such curve, though single readings can be large or run the other way.
Respond only with the outcome that fits, drawn from class 1 for active, class 0 for inactive

compound: O=C1c2ccccc2C(=O)c2c(Cl)cccc21
assigned label: class 1
--
compound: CCc1cccc(C)c1N(C(=O)CS(=O)(=O)O)C(C)COC (centres undefined)
assigned label: class 0
--
compound: CC/C=C(\C)C=O
assigned label: class 0
--
compound: Nc1ccc(F)c([N+](=O)[O-])c1
assigned label: class 0

Q: // param item: `CCc1cccc(CC)c1` ; yields the recorded call
Result: class 0

---

Biological target: Cytochrome P450 1A2 (Homo sapiens)
Test: Cytochrome P450 Family 1 Subfamily A Member 2 (CYP1A2) small molecule antagonists: luciferase reporter qHTS assay (AID 1671199); further: nearly all actives have a fitted effect of over 50% in size
Conditions: P450-Glo CYP1A2 enzyme, luciferin luminescence, 1 h; series mostly up to 115 µM
Inconclusive results are not listed. Calls of active or inactive are those of the source. Calls follow the shape of the dose curve; as a rule, active = well fitted inhibition curve with a large enough effect in the repeat runs; inconclusive = weak or mixed curves; inactive = no such curve, though single readings can be large or run the other way.
Respond only with the outcome that fits, drawn from true (1) for active, false (0) for inactive

Worked set:
item smiles: CN1CCN(CCCN2c3ccccc3Sc3ccc(Cl)cc32)CC1
assayed target: Cytochrome P450 1A2 (Homo sapiens)
assigned label: true (1)

item smiles: COc1cccc(-c2ccc(/C=C\CN3CCCCCC3)cc2Cl)c1
assayed target: Cytochrome P450 1A2 (Homo sapiens)
assigned label: true (1)

item smiles: ClC(c1ccccc1)(c1ccccc1)c1ccccc1
assayed target: Cytochrome P450 1A2 (Homo sapiens)
assigned label: false (0)

Q: // param item: `CCCCCCCCCCCCCCCCCCNC(=O)OC1CCN(C(=O)OC[C@H](COC(=O)N(Cc2cccc[n+]2CC)C(=O)c2ccccc2OC)OC)CC1` ; yields the recorded call
Result: false (0)

Q: Next: `COC(=O)c1ccc([N+](=O)[O-])cc1`
Result: true (1)

Q: Next: `CO[Si](OC)(c1ccccc1)c1ccccc1`
Result: false (0)

---

Assay: qHTS assay to identify small molecule HDAC inhibitors (AID 1259364);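 further: wild-type HCT-116 cells with endogenous class I/II HDAC activity; top concentration of the series differs between compounds; nearly all actives have a fitted effect of over 45% in size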
Settings: HCT-116 HDAC-Glo I/II luminescence, 2 h; series mostly up to 92.4 µM
Results filed as inconclusive are left out. Activity calls are given as the source filed them. Calls follow the shape of the dose curve; as a rule, active = well fitted inhibition curve with a large enough effect in the repeat runs; inconclusive = weak or mixed curves; inactive = flat fitted curve, though single readings scatter.

item smiles: Clc1nc(C(Cl)(Cl)Cl)c(Cl)c(Cl)c1Cl
outcome: inactive
--
item smiles: CCCCCc1ccc(O)cc1
outcome: inactive
--
item smiles: C=C1CC[C@H]2O[C@]2(C)CC[C@@H]2[C@@H]1CC2(C)C
outcome: inactive
--
item smiles: CC1(C)[C@H]2CC[C@]1(C)C(=O)C2
outcome: inactive

---

Experiment: qHTS RealTime-Glo MT Cell Viability Assay in HepG2 cells - 16 hour (AID 1224885); further: nearly all actives have a fitted effect of over 50% in size
Conditions: RealTime-Glo luminescence; series mostly up to 76.8 µM
Inconclusive results are not listed. Active and inactive are the calls of the source. Calls come from the whole dose curve; as a rule, active = well fitted cell-killing curve with a large enough effect in the repeat runs; inconclusive = weak or mixed curves; inactive = flat fitted curve, though single readings scatter.
Respond only with the outcome that fits, drawn from y = active, n = inactive

Worked set:
compound: S=C1NC=NC2N=CNC12 (stereo not drawn)
assigned label: n
//
compound: O[Si](c1ccccc1)(c1ccccc1)c1ccccc1
assigned label: n
//
compound: CC(Cc1ccc(O)c(O)c1)C(C)Cc1ccc(O)c(O)c1 (stereo not drawn)
assigned label: y
//
compound: CCC(C)(C)c1ccc(CC(C)CN2C[C@@H](C)O[C@@H](C)C2)cc1 (stereo partly drawn)
assigned label: n
//
compound: CC(C)=NNC(N)=S
assigned label: n
//
compound: CCCCCCCCCC[N+](C)(CCCCCCCCCC)CCC[Si](OC)(OC)OC
assigned label: y

Q: // param item: `CC1=C(/C=C/C(C)=C/C=C/C(C)=C\C(=O)O)C(C)(C)CCC1` ; yields the recorded call
Result: n

Q: Next: CC1CCC(C(C)(C)O)CC1 (stereo not drawn)
Result: n

---

Assay: qHTS assay to identify small molecule antagonists of the estrogen related receptor (ERR) signaling pathway (AID 1224819; further: nearly all actives have a fitted effect of over 50% in size; further: potency means the concentration at half of the fitted maximal effect)
Settings: ERR reporter cell line, luciferase inhibition; series mostly up to 46.1 µM
Results filed as inconclusive are left out. Activity calls are given as the source filed them. Calls follow the shape of the dose curve; as a rule, active = well fitted inhibition curve with a large enough effect in the repeat runs; inconclusive = weak or mixed curves; inactive = no such curve, though single readings can be large or run the other way.
readout type: Potency

Worked cases, answers included:
molecule: O=C(O)C1=CCCNC1
value measured: inactive
--
molecule: OCC1O[C@H]([S-])C(O)[C@@H](O)[C@@H]1O.[Au+] (some centres undefined)
value measured: 22000 nM (active)
--
molecule: Oc1ccc(C2CNCc3sccc32)cc1O (centres undefined)
value measured: inactive
--
molecule: NC(=O)C1=CN(C2OC(COP(=O)(O)OP(=O)(O)OC[C@H]3O[C@@H](n4cnc5c(N)ncnc54)[C@H](OP(=O)(O)O)C3O)C(O)C2O)C=CC1 (some centres undefined)
value measured: inactive
--
molecule: OCC1O[C@H](O)C(Cl)C(O)C1O (some centres undefined)
value measured: inactive
--
molecule: Cc1ccc(O)c(N=Nc2ccccc2)n1
value measured: inactive

Q: Any idea what Potency was measured for `Cn1ncc(S(=O)(=O)Cc2ccccc2)c(Br)c1=O` ?
Result: inactive

Q: Next: `O=C(Nc1ccc2[nH]ncc2c1)C1CCC1`
Result: inactive

---

Assay: qHTS assay to test for compound auto fluorescence at 460 nm (blue) in HepG2 cells (AID 720687)
Conditions: autofluorescence 405/460 nm, 1 h; series mostly up to 46 µM
Calls of active or inactive are those of the source. The call rests on the fitted dose curve; in most records, active means well fitted curve in the direction sought with a large enough effect in the repeat runs; inconclusive means weak or mixed curves; inactive means flat fitted curve, though single readings scatter. Non-standard residues stand in square brackets, D forms with d. Residues, ends and D or L forms follow the SMILES beside them. Orn = NCCC[C@H](N)C(=O)O
Respond only with the outcome that fits, drawn from YES for active, NO for inactive

compound: CCCCCCCCCC(=O)NO
assigned label: NO
--
compound: CC(C)C[C@@H]1NC(=O)[C@H](CCCN)NC(=O)[C@H](C(C)C)NC(=O)[C@@H]2CCCN2C(=O)[C@@H](Cc2ccccc2)NC(=O)[C@H](CC(C)C)NC(=O)[C@H](CCCN)NC(=O)[C@H](C(C)C)NC(=O)[C@@H]2CCCN2C(=O)[C@@H](Cc2ccccc2)NC1=O (cyclo(V[Orn]L[dF]PV[Orn]L[dF]P))
assigned label: NO
--
compound: CC[C@@H](C)[C@H](N)C(=O)O
assigned label: NO
--
compound: CNCCC=C1c2ccccc2CCc2ccccc21
assigned label: NO
--
compound: Clc1nc(C(Cl)(Cl)Cl)c(Cl)c(Cl)c1Cl
assigned label: NO

Turning now to a further compound:
Q: // param item: `O=C1c2ccccc2-c2n[nH]c3cccc1c23` ; yields the recorded call
Result: YES

---

Test: qHTS assay to identify small molecule agonists of the RXR signaling pathway - cell viability counter screen (AID 1159529); further: nearly all actives have a fitted effect of over 50% in size
Conditions: RXR-alpha-bla HEK293T viability, CellTiter-Glo, 16 h; series mostly up to 76.8 µM
Results filed as inconclusive are left out. Active and inactive are the calls of the source. The call rests on the fitted dose curve; in most records, active means well fitted cell-killing curve with a large enough effect in the repeat runs; inconclusive means weak or mixed curves, or effect the other way; inactive means no such curve, though single readings can be large or run the other way.
Respond only with the outcome that fits, drawn from active, inactive

Worked set:
compound: Cc1ccc(N=Nc2c(O)ccc3ccccc23)c(C)c1
assigned label: inactive
//
compound: CN(C/C=C/c1ccccc1)Cc1cccc2ccccc12
assigned label: active
//
compound: CN[C@H]1CC[C@@H](c2ccc(Cl)c(Cl)c2)c2ccc(S(N)(=O)=O)cc21
assigned label: active

Q: // param item: CCC(C)(C)c1ccc(CC(C)CN2C[C@@H](C)O[C@@H](C)C2)cc1 (some centres undefined) ; yields the recorded call
Result: active

Q: Next: `CN(C)CCOc1ccc(/C(=C(/CCCl)c2ccccc2)c2ccccc2)cc1`
Result: active

Q: Next: `CN1CCN(CCCN2c3ccccc3Sc3ccc(C(F)(F)F)cc32)CC1`
Result: active

Q: Next: `ClC(c1ccccc1)(c1ccccc1)c1ccccc1`
Result: inactive

Q: Next: `CN(C[C@@H](CC[N+]12CCC(C3CCCCC3)(CC1)CC2)c1ccc(Cl)c(Cl)c1)C(=O)c1cc(C(F)(F)F)cc(C(F)(F)F)c1`
Result: active

Q: Next: `O=C1CCC(=O)N1`
Result: inactive
